We begin with a simple list: items and their reported pIC50.
Target of assay: PI3K β (Homo sapiens, UniProt P42338)
Construct: Full length p110 subunits of PI3K α, β and δ, N-terminally labeled with polyHis tag; polyHis (N)
Sequence (P42338 whole entry, one chain of several): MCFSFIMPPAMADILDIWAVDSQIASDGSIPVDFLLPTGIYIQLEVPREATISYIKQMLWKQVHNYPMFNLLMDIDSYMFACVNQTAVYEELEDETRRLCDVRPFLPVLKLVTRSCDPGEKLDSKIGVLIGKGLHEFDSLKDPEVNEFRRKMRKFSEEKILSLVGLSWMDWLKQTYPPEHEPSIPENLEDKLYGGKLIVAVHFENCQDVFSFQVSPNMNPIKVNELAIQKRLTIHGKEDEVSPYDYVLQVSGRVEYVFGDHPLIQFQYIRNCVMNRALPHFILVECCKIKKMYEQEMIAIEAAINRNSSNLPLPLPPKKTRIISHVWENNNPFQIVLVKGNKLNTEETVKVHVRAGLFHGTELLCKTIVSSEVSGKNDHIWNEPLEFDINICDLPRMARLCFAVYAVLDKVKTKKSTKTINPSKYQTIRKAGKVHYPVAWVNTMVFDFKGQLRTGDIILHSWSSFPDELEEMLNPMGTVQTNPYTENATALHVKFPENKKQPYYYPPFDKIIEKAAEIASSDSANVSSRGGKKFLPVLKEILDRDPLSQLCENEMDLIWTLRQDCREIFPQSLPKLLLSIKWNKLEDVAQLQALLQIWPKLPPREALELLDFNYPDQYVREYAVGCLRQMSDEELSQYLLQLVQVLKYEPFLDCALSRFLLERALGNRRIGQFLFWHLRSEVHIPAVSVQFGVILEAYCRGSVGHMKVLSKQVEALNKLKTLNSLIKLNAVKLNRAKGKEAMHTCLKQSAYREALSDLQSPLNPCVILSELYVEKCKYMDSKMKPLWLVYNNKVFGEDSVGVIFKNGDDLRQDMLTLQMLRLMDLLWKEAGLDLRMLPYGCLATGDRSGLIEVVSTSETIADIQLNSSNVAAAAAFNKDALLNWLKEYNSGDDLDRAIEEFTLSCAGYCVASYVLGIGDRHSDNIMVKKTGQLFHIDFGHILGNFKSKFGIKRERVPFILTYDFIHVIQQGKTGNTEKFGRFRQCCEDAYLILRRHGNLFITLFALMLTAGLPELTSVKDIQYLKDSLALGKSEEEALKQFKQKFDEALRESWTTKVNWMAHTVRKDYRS
Assay protocol: In vitro PI3 kinase enzyme assay (beta), ATP loss, bioluminescence;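 note: purified p110β/p85 heterodimer with PtdIns(4,5)P2 as acceptor, incubated at room temperature, leftover ATP read by luminescence, inhibition scaled to compound-free wells with and without enzyme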
Conditions used: read-out: PI3Kβ ATP loss IC50
pIC50: −log10 of the molar value.

Worked cases, answers included:
[[record]]
cpd_smiles = "O=C(CN1CCOCC1)Nc1nc2ccc(-c3ccnc(OCc4ccccc4)n3)cc2s1"
target_of_assay = "PI3K β (Homo sapiens, UniProt P42338)"
parameter_measured = "pIC50"
recorded_result = "< 4.40"

[[record]]
cpd_smiles = "CC(=O)Nc1nc2ccc(-c3ccnc(Sc4cccc(F)c4)n3)cc2s1"
target_of_assay = "PI3K β (Homo sapiens, UniProt P42338)"
parameter_measured = "pIC50"
recorded_result = 6.92


Next compound, pIC50 to be filled in.
Task item: # query: pIC50 of entry `CC(=O)Nc1nc2ccc(-c3cnccc3CO)cc2s1`
Reply: < 4.40

###

Target of assay: PI3K α (Homo sapiens, UniProt P42336)
Construct: Full length p110 subunits of PI3K α, β and δ, N-terminally labeled with polyHis tag; polyHis (N)
Sequence (P42336 whole entry, species assumed): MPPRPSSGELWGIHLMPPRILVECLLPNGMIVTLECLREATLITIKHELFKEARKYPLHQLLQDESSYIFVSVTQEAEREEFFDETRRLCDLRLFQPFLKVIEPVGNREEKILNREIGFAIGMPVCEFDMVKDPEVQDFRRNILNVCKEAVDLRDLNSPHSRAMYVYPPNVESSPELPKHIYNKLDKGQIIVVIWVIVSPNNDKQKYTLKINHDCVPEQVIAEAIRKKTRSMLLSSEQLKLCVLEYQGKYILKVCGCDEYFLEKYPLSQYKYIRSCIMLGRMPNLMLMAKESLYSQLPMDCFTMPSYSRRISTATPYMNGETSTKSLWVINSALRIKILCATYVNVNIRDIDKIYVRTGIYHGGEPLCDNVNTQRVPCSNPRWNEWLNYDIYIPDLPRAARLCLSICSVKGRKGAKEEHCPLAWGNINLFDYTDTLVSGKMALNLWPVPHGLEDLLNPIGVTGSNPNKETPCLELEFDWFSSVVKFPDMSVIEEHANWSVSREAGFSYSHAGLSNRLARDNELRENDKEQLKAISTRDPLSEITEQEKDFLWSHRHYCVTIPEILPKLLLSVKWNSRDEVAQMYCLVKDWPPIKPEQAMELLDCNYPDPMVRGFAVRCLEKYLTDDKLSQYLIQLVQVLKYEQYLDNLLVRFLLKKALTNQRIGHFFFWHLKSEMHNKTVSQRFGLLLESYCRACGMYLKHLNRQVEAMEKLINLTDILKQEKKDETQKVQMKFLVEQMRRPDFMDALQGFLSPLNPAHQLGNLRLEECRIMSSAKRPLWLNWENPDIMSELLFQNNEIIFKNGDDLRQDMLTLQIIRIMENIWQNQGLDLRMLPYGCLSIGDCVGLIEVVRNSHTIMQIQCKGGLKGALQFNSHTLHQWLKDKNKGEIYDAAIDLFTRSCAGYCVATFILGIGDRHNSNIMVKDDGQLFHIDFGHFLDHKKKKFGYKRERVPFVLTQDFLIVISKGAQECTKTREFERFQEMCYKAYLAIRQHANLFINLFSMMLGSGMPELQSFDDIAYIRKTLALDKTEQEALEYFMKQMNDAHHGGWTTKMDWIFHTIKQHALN
Sequence (P27986 whole entry partner, species assumed): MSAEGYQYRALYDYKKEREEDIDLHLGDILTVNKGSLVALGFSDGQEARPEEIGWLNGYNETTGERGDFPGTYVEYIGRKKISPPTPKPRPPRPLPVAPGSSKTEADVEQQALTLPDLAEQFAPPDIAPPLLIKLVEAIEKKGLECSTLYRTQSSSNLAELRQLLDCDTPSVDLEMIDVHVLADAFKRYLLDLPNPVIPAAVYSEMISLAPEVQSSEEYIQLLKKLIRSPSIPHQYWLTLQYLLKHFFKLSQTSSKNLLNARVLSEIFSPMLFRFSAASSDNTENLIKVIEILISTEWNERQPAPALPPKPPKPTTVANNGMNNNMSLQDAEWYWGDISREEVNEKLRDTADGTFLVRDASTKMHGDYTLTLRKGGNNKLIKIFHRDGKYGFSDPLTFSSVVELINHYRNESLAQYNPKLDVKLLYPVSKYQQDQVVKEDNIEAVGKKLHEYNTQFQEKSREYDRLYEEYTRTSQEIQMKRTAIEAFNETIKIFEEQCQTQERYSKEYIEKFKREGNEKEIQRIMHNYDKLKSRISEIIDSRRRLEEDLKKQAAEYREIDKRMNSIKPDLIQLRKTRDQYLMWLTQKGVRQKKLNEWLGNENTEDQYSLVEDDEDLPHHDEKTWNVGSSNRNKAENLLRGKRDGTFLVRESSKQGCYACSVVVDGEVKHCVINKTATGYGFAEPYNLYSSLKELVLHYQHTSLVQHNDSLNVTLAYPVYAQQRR
Assay protocol: In vitro PI3 kinase enzyme assay (alpha), ATP loss, bioluminescence
Conditions used: read-out: PI3Kα ATP loss IC50
Parameter measured: IC50 (nM)

P: COc1cccc(Sc2nccc(-c3ccc4nc(NC(C)=O)sc4c3)n2)c1 [Example 41]
Q: COc1ncc(-c2ccc3nc(NC(C)=O)sc3c2)cc1NC(C)C [Example 145]
R: CC(=O)Nc1nc2ccc(-c3ccnc(Sc4ccccc4F)n3)cc2s1 [Example 23]
Task item: hey, can you rank those molecules up there by IC50? biggest number first please Provide your answer as the labels ordered per the instruction.
Reply: P, Q, R

P: CC(=O)Nc1nc2ccc(-c3ccnc(N(C)S(=O)(=O)c4ccsc4)n3)cc2s1 [Example 209]
Q: COc1ccc(S(=O)(=O)N(C)c2cncc(-c3ccc4nc(NC(C)=O)sc4c3)n2)cc1 [Example 126]
Task item: Select one: P or Q . Criterion: greater recorded IC50. Write down the label attached to your selection.
Reply: P

a: CC(=O)Nc1nc2ccc(-c3ccnc(N(C)S(=O)(=O)c4cccs4)n3)cc2s1 [Example 206]
b: COc1ccc(S(=O)(=O)N(C)c2nccc(-c3cc(F)c4nc(NC(C)=O)sc4c3)n2)cc1 [Example 143]
c: CN(C)CC(=O)Nc1nc2ccc(-c3ccnc(OCc4ccccc4)n3)cc2s1 [Example 59]
d: CC(=O)Nc1nc2ccc(-c3cccc(NS(=O)(=O)c4ccccc4F)n3)cc2s1 [Example 73]
e: CC(=O)Nc1nc2ccc(-c3cncc(N(C)S(=O)(=O)c4ccc(F)c(F)c4)c3)cc2s1 [Example 222]
Task item: // ranking: key=IC50, reverse=True Answer format: list of labels, ordered as asked.
Reply: c, e, a, b, d

###

Target of assay: PI3K α (Homo sapiens, UniProt P42336)
Construct: Full length p110 subunits of PI3K α, β and δ, N-terminally labeled with polyHis tag; polyHis (N)
Assay protocol: In vitro PI3 kinase enzyme assay (alpha), ATP loss, bioluminescence
Conditions used: read-out: PI3Kα ATP loss IC50
pIC50: −log10 of the molar value.
Parameter measured: pIC50

Example entries begin here.
[[record]]
cpd_smiles = "CC(=O)Nc1nc2ccc(-c3ccnc(Sc4c(C)cccc4C)n3)cc2s1"
recorded_result = 7.42

[[record]]
cpd_smiles = "CC(=O)Nc1nc2ccc(-c3cnccc3CO)cc2s1"
recorded_result = 5.72

[[record]]
cpd_smiles = "CC(=O)Nc1nc2ccc(-c3ccnc(OC4CCN(C)CC4)n3)cc2s1"
recorded_result = 5.62

[[record]]
cpd_smiles = "CC(=O)Nc1nc2ccc(-c3ccnc(OCCCN4CCOC4=O)n3)cc2s1"
recorded_result = 6.22

[[record]]
cpd_smiles = "COc1cc(-c2ccc3nc(NC(C)=O)sc3c2)cnc1Cl"
recorded_result = 6.81

[[record]]
cpd_smiles = "CC(=O)Nc1nc2c(F)cc(-c3cccc(S(=O)(=O)c4ccccc4F)n3)cc2s1"
recorded_result = 7.19


A: CC(=O)Nc1nc2ccc(-c3ccnc(OCC(C)(C)C)n3)cc2s1
B: CC(=O)Nc1nc2ccc(-c3cnc(Cl)c(NS(=O)(=O)c4ccc(Cl)s4)c3)cc2s1
Task item: Between the entries labelled A and B , which has a larger pIC50 value on record? Please respond with the label that marks your chosen entry.
Reply: B
(B: 8.17, A: 6.30)

P: CC(=O)Nc1nc2ccc(-c3cccc(N)c3)nc2s1
Q: COc1ccc(S(=O)(=O)Nc2cc(-c3ccc4nc(NCC5CCCCC5)sc4c3)cnc2Cl)cc1
R: CC(=O)Nc1nc2ccc(-c3ccnc(O)n3)cc2s1
Task item: Please list the entries, largest pIC50 first. Provide your answer as the labels ordered per the instruction.
Reply: Q, P, R
